Value source: patent US5648369A

Target: GABAA
Test: Radioligand binding, GABAA
Conditions: reference compound, GABAA
Description: EAAs are known to play important roles in excitatory neurotransmission in partial seizures as discussed earlier. EAAs are known to play important roles in excitatory transmission in partial seizures as discussed earlier.
Readout Name: pKi
pKi is a log-scale quantity: -log10 of the concentration expressed in molar.

Summary for this molecule, NCc1cc(=O)[nH]o1 [Muscimol, reference compound] : pKi is 8.55

* * *

target: Benzodiazepine; test: Radioligand binding, Benzodiazepine; conditions: reference compound, Benzodiazepine
Readout Name: pKi
For clarity, pKi is expressed as the negative log10 of concentration in mol/L.

The recorded pKi for entry O=C1CN=C(c2ccccc2Cl)c2cc([N+](=O)[O-])ccc2N1 [Clonazepam, reference compound] equals 8.47
